- Test system: K562
- assay: cells
- measurement.setup: Homo sapiens, K562, 72 h
- Description: Cytotoxicity against human K562 cells assessed as cell growth inhibition measured after 72 hrs by MTT assay
Measured IC50, listed per entry for reference.
A number alone suffices; assume nM.

Cc1cn(-c2cc(NC(=O)c3ccc(C)c(Nc4nccc(-c5cccnc5)n4)c3)cc(C(F)(F)F)c2)cn1 [NILOTINIB]
1.8
Cc1ccc(C(=O)Nc2ccc3c(c2)C(F)(F)C[C@H]3N2CCN(C)CC2)cc1C#Cc1cnc(NC2CC2)nc1
10.4

Task: Quick one: IC50 for "Cc1ccc(C(=O)Nc2ccc3c(c2)C(F)(F)C[C@@H]3N2CCN(C)CC2)cc1C#Cc1cnc(NC2CC2)nc1" ?
Output: 0.6

Task: Report IC50 for Cc1ccc(NC(=O)c2ccc(CN3CCN(C)CC3)cc2)cc1Nc1nccc(-c2cccnc2)n1 [IMATINIB] please.
Output: 82.9

* * *

AUC(0-t) at 24 h values by entry
- assay: AUC (0 to t) in ICR mouse at 5 mg/kg, iv measured upto 24 hrs by LC/MS/MS analysis
- Format: ADME, organism-based
- Set-up: route intravenous, dose 5 mg/kg, time <=24
- measurement.setup: in vivo
Write it as a number; the unit ng·h/mL goes unstated.

Cc1ccc(C(=O)Nc2ccc3c(c2)C(F)(F)C[C@@H]3N2CCN(C)CC2)cc1C#Cc1cnc2cccnn12
1390

// next entry
Task: What does the data say about its AUC(0-t) at 24 h? Entry: "Cc1ccc(C(=O)Nc2ccc(CN3CCN(C)CC3)c(C(F)(F)F)c2)cc1C#Cc1cnc2cccnn12"
Output: 497

* * *

- assay: Oral bioavailability in ICR mouse at 15 mg/kg measured upto 24 hrs by LC/MS/MS analysis
- Assay type: ADME, organism-based
- measurement.setup: in vivo
Consider the following compounds and their measured bioavailability readings.
The answer should read as a number with its unit following.

Task: May I ask what bioavailability has been recorded for "Cc1ccc(C(=O)Nc2ccc3c(c2)C(F)(F)C[C@@H]3N2CCN(C)CC2)cc1C#Cc1cnc2cccnn12" ?
Output: 32%

Task: Given Cc1ccc(C(=O)Nc2ccc(CN3CCN(C)CC3)c(C(F)(F)F)c2)cc1C#Cc1cnc2cccnn12 [PONATINIB] , state its recorded bioavailability.
Output: 27%

* * *

- experimental.target: Voltage-gated inwardly rectifying potassium channel KCNH2 (Homo sapiens)
- Sequence (Q12809 whole entry): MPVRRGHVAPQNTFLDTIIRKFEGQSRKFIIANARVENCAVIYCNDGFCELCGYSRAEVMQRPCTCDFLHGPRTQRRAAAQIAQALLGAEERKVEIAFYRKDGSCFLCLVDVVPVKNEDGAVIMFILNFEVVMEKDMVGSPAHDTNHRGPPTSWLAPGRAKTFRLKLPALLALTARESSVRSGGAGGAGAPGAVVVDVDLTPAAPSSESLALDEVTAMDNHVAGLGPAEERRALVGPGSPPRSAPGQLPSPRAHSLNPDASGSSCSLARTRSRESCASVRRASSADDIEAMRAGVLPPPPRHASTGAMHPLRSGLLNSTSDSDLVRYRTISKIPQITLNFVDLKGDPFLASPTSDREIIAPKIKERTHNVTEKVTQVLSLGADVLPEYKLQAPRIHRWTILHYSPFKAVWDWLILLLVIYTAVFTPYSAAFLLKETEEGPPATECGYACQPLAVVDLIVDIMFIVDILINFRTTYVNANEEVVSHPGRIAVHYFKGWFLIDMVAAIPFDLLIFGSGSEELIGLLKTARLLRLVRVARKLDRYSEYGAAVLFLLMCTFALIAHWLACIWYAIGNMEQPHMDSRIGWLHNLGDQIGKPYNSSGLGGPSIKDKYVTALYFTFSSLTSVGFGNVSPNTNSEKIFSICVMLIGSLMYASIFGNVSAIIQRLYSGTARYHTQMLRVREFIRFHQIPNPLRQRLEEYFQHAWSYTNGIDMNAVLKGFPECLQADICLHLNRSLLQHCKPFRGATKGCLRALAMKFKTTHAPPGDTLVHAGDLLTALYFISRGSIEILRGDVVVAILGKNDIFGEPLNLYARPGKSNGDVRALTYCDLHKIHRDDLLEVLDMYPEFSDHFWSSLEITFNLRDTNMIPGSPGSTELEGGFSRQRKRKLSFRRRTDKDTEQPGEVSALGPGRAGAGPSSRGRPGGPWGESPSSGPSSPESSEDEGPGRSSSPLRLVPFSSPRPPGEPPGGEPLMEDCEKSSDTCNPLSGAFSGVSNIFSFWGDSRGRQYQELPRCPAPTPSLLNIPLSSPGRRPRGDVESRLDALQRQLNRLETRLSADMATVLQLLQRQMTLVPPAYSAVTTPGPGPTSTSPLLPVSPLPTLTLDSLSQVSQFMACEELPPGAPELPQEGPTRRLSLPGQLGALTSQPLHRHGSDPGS
endpoint: pIC50
Please express pIC50 as -log10 of the molar concentration.

Task: Fill in: pIC50 of "Cc1ccc(C(=O)Nc2ccc3c(c2)C(F)(F)C[C@@H]3N2CCN(C)CC2)cc1C#Cc1cnc2cccnn12" is ___
Output: 4.95

* * *

- assay: MRT in ICR mouse at 5 mg/kg, iv measured upto 24 hrs by LC/MS/MS analysis
- Assay type: ADME, organism-based
- measurement.setup: in vivo
endpoint: MRT (h)
All answers are understood in h, so give the number only.

Cc1ccc(C(=O)Nc2ccc(CN3CCN(C)CC3)c(C(F)(F)F)c2)cc1C#Cc1cnc2cccnn12
4.29

Below: the item to evaluate.
Task: # input molecule: "Cc1ccc(C(=O)Nc2ccc3c(c2)C(F)(F)C[C@@H]3N2CCN(C)CC2)cc1C#Cc1cnc2cccnn12" ; wanted: its MRT
Output: 5.11

* * *

- experimental.target: Proto-oncogene tyrosine-protein kinase Src (Homo sapiens, UniProt P12931)
- Sequence (P12931 2-536 limits assumed): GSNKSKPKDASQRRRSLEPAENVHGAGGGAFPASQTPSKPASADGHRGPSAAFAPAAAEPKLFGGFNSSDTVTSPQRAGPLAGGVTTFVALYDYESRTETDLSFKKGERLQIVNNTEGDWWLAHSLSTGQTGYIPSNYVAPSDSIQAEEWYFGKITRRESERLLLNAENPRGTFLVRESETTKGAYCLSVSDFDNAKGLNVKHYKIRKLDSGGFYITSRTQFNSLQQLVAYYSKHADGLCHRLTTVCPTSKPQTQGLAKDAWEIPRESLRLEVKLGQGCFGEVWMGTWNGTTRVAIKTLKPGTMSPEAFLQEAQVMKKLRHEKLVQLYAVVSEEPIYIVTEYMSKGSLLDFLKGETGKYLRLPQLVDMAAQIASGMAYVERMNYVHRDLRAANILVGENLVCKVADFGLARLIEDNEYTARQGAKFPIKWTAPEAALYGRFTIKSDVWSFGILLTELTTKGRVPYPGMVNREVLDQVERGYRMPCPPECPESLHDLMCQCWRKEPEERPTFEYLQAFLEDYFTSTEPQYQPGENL
pIC50: −log10 of the molar value.
endpoint: pIC50

Task: Field: pIC50 (Proto-oncogene tyrosine-protein kinase Src (Homo sapiens, UniProt P12931)). Entry: "Cc1ccc(C(=O)Nc2ccc3c(c2)C(F)(F)C[C@@H]3N2CCN(C)CC2)cc1C#Cc1cnc2cccnn12"
Output: > 8.00

* * *

We begin with a simple list: items and their reported IC50.
- Test system: BaF3
- assay: cells
- measurement.setup: Mus musculus, BaF3, 48 h
- Description: Cytotoxicity against mouse BAF3 cells expressing BCR-ABL T315I mutant assessed as inhibition of cell growth measured after 48 hrs by trypan blue assay

Worked examples, 3 compounds total:
Cc1ccc(C(=O)Nc2ccc3c(c2)C(F)(F)C[C@H]3N2CCN(C)CC2)cc1C#Cc1cnc(NC2CC2)nc1
> 100 nM
Cc1cn(-c2cc(NC(=O)c3ccc(C)c(Nc4nccc(-c5cccnc5)n4)c3)cc(C(F)(F)F)c2)cn1
> 100 nM
Cc1ccc(NC(=O)c2ccc(CN3CCN(C)CC3)cc2)cc1Nc1nccc(-c2cccnc2)n1
> 100 nM

Task: So what does the record say about IC50 for "Cc1ccc(C(=O)Nc2ccc3c(c2)C(F)(F)C[C@@H]3N2CCN(C)CC2)cc1C#Cc1cnc(NC2CC2)nc1" ?
Output: 12.4 nM
